Source: the supplement of paper PMC13380429

Exercise: for every item that follows, state its recorded SARS-CoV-2 infection rate.
- Test system: Vero E6 infected with SARS-CoV-2
- assayName: SARS-CoV-2 infection rate relative to infected DMSO; higher = more infection, active = 60 or less
- recordedConditions: 24 h
Write it as a number; the unit % goes unstated.

Task item: Would you mind telling me what SARS-CoV-2 infection rate value was observed for COc1ccc(S(=O)(=O)Nc2cc(Cl)cc(Cl)c2OC)cc1N1CCNCC1 (10 µM) ?
Reply: 97.5

Task item: Would you mind telling me what SARS-CoV-2 infection rate value was observed for CCOc1nc2cccc(C(=O)O)c2n1Cc1ccc(-c2ccccc2-c2noc(=O)[nH]2)cc1 [azilsartan] (10 µM) ?
Reply: 109

Task item: Would you mind telling me what SARS-CoV-2 infection rate value was observed for CCO/N=C(\C(=O)N[C@@H]1C(=O)N2C(C(=O)[O-])=C(Sc3nc(-c4cc[n+](C)cc4)cs3)CS[C@H]12)c1nsc(NP(=O)(O)O)n1 [ceftaroline-fosamil] (10 µM) ?
Reply: 87.5

Task item: Would you mind telling me what SARS-CoV-2 infection rate value was observed for COc1cc([C@@H]2c3cc4c(cc3[C@@H](O[C@@H]3O[C@@H]5CO[C@@H](c6cccs6)O[C@H]5[C@H](O)[C@H]3O)[C@H]3COC(=O)[C@H]23)OCO4)cc(OC)c1O [teniposide] (10 µM) ?
Reply: 111

Task item: Would you mind telling me what SARS-CoV-2 infection rate value was observed for N=C(N)NS(=O)(=O)c1ccc(N)cc1 [sulfaguanidine] (10 µM) ?
Reply: 108

Task item: Would you mind telling me what SARS-CoV-2 infection rate value was observed for CC(=O)OC/C=C(C)/C=C/C=C(C)/C=C/C1=C(C)CCCC1(C)C [retinyl-acetate] (10 µM) ?
Reply: 113

Task item: Would you mind telling me what SARS-CoV-2 infection rate value was observed for Cc1ncc(Cl)cc1NCc1ccc(C(=O)N[C@@H](CC2CCCC2)C(=O)NC2CC2)s1 (10 µM) ?
Reply: 106

----------
- System: Vero E6 infected with SARS-CoV-2
- assayName: inhibition of SARS-CoV-2 cytopathic effect; higher = more antiviral protection, active = above 15
- recordedConditions: 1 nM; 48 h
testReadout: inhibition of SARS-CoV-2 cytopathic effect

Task item: I'm curious: which inhibition of SARS-CoV-2 cytopathic effect was measured for CCCCNc1nc(N)c2[nH]c(=O)n(Cc3ccc(OCCN(C)C)nc3)c2n1 tested on Vero E6 infected with SARS-CoV-2?
Reply: -1.79% (inactive)

Task item: I'm curious: which inhibition of SARS-CoV-2 cytopathic effect was measured for Nc1ccn([C@H]2CO[C@@H](CO)S2)c(=O)n1 tested on Vero E6 infected with SARS-CoV-2?
Reply: 0.27% (inactive)

Task item: I'm curious: which inhibition of SARS-CoV-2 cytopathic effect was measured for CCn1c(-c2nonc2N)nc2cnc(Oc3cccc(NC(=O)c4ccc(OCCN5CCOCC5)cc4)c3)cc21 tested on Vero E6 infected with SARS-CoV-2?
Reply: 3.5% (inactive)

Task item: I'm curious: which inhibition of SARS-CoV-2 cytopathic effect was measured for O=S(=O)(c1ccccc1)c1cnc2c(N3CCNCC3)cccc2c1 tested on Vero E6 infected with SARS-CoV-2?
Reply: -2.8% (inactive)

Task item: I'm curious: which inhibition of SARS-CoV-2 cytopathic effect was measured for O=C(O)C1CSCN1 (stereo not drawn) tested on Vero E6 infected with SARS-CoV-2?
Reply: -2.35% (inactive)

Task item: I'm curious: which inhibition of SARS-CoV-2 cytopathic effect was measured for CN(C)CCOc1cc(-c2cn[nH]c2)ccc1NC(=O)C1COc2ccccc2O1 (stereo not drawn) tested on Vero E6 infected with SARS-CoV-2?
Reply: -1.4% (inactive)

Task item: I'm curious: which inhibition of SARS-CoV-2 cytopathic effect was measured for N[C@H](C(=O)O)c1cc(O)no1 tested on Vero E6 infected with SARS-CoV-2?
Reply: 2.28% (inactive)

Task item: I'm curious: which inhibition of SARS-CoV-2 cytopathic effect was measured for O=C[C@H](F)[C@@H](O)[C@@H](O)[C@H](O)CO tested on Vero E6 infected with SARS-CoV-2?
Reply: 1.5% (inactive)

Task item: I'm curious: which inhibition of SARS-CoV-2 cytopathic effect was measured for COc1cc2ncnc(Nc3cccc(Cl)c3F)c2cc1OC(=O)N1CCN(C)C[C@H]1C tested on Vero E6 infected with SARS-CoV-2?
Reply: 1.89% (inactive)

Task item: I'm curious: which inhibition of SARS-CoV-2 cytopathic effect was measured for COC1=C2C[C@@H](C)C[C@H](OC)[C@H](O)[C@@H](C)/C=C(\C)[C@H](OC(N)=O)[C@@H](OC)/C=C\C=C(/C)C(=O)NC(=CC1=O)C2=O tested on Vero E6 infected with SARS-CoV-2?
Reply: 1.08% (inactive)

Task item: I'm curious: which inhibition of SARS-CoV-2 cytopathic effect was measured for CCCCCCN(CCCCCC)C(=O)Cc1c(-c2ccc(F)cc2)[nH]c2ccccc12 tested on Vero E6 infected with SARS-CoV-2?
Reply: 5.1% (inactive)

Task item: I'm curious: which inhibition of SARS-CoV-2 cytopathic effect was measured for CCCN1CCN(c2ccc(C(=O)NC3(C(=O)NCC#N)CCCCC3)cc2)CC1 tested on Vero E6 infected with SARS-CoV-2?
Reply: 3.8% (inactive)

Task item: I'm curious: which inhibition of SARS-CoV-2 cytopathic effect was measured for CC(C)n1nc(-c2ccc3oc(N)nc3c2)c2c(N)ncnc21 tested on Vero E6 infected with SARS-CoV-2?
Reply: 1.94% (inactive)

Task item: I'm curious: which inhibition of SARS-CoV-2 cytopathic effect was measured for CCOC(=O)[C@H](CCc1ccccc1)N[C@@H](C)C(=O)N1[C@H](C(=O)O)C[C@H]2CCCC[C@@H]21 tested on Vero E6 infected with SARS-CoV-2?
Reply: -1.1% (inactive)

Task item: I'm curious: which inhibition of SARS-CoV-2 cytopathic effect was measured for O=C1/C(=C/c2ccccc2)C[C@@]2(O)[C@H]3Cc4ccc(O)c5c4[C@@]2(CCN3CC2CC2)[C@H]1O5 tested on Vero E6 infected with SARS-CoV-2?
Reply: -2.61% (inactive)

Task item: I'm curious: which inhibition of SARS-CoV-2 cytopathic effect was measured for C[C@]12CCC(=O)C[C@@H]1CC[C@@H]1[C@@H]2CC[C@]2(C)C=CC[C@@H]12 tested on Vero E6 infected with SARS-CoV-2?
Reply: -0.13% (inactive)

Task item: I'm curious: which inhibition of SARS-CoV-2 cytopathic effect was measured for N[C@@H](Cc1ccc(O)cc1)C(=O)NCC(=O)NCC(=O)O tested on Vero E6 infected with SARS-CoV-2?
Reply: 1.38% (inactive)

Task item: I'm curious: which inhibition of SARS-CoV-2 cytopathic effect was measured for O=C(/C=C/c1ccc(O)c(O)c1)O[C@H](Cc1ccc(O)c(O)c1)C(=O)O tested on Vero E6 infected with SARS-CoV-2?
Reply: 2.8% (inactive)
